The measured values listed here are drawn from paper PMC9250238.

target: UniProt P53341; assay: Combined inhibition of acarbose and selected compounds against α-glucosidase (CompuSyn CI); type: biochemical; set-up: purchased Sigma–Aldrich; conditions: CI >1.1 antagonistic, 0.9-1.1 additive, <0.9 synergistic
measurement.label: Type of interaction with acarbose against α-glucosidase

molecule | system.tested | endpoint.result
Cc1c(O)cc2c(c1O)C(=O)C(Cc1ccc(O)cc1)CO2 (stereo not shown) | UniProt P53341 | synergism
O=c1c(Cc2ccc(O)cc2)coc2cc(O)cc(O)c12 | UniProt P53341 | synergism
CCO[C@@H](c1ccc(O)c(OC)c1)[C@H](O)CO | UniProt P53341 | synergism

###

Entries and their IC50 values follow.
target: α-glucosidase (Saccharomyces cerevisiae) (Saccharomyces cerevisiae, UniProt P53341); assay: biochemical
Sequence (P53341 whole entry): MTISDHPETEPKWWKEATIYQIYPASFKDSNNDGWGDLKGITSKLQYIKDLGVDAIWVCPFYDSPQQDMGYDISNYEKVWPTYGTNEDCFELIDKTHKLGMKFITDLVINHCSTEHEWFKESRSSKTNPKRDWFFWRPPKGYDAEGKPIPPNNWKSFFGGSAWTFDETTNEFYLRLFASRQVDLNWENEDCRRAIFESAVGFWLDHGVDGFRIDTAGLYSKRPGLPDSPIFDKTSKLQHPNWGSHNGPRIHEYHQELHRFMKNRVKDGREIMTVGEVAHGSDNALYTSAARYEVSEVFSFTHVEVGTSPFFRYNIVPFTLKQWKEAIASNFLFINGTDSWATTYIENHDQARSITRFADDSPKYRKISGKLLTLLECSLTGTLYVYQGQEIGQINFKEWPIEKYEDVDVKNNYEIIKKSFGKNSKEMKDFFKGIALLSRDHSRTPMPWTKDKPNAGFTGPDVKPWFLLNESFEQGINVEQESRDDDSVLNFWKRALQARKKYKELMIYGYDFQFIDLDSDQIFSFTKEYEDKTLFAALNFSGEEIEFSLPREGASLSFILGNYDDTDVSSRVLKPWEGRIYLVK

compound | system.tested | IC50 (µM)
COc1cc(O)c2c(c1C)O[C@H](c1ccc(O)cc1)CC2 | α-glucosidase (Saccharomyces cerevisiae) (Saccharomyces cerevisiae, UniProt P53341) | 240
O=C(/C=C/c1ccc(O)cc1)NCCc1ccc(O)cc1 [Compound 18, trans-N-p-coumaroyltyramine] | α-glucosidase (Saccharomyces cerevisiae) (Saccharomyces cerevisiae, UniProt P53341) | 1.99
O=c1c(Cc2ccc(O)cc2)coc2cc(O)cc(O)c12 | α-glucosidase (Saccharomyces cerevisiae) (Saccharomyces cerevisiae, UniProt P53341) | 650
Cc1c(O)cc2c(c1O)C(=O)C(Cc1ccc(O)cc1)CO2 (stereo not drawn) | α-glucosidase (Saccharomyces cerevisiae) (Saccharomyces cerevisiae, UniProt P53341) | 520
CCO[C@@H](c1ccc(O)c(OC)c1)[C@H](O)CO | α-glucosidase (Saccharomyces cerevisiae) (Saccharomyces cerevisiae, UniProt P53341) | 40
Cc1c(Cl)c(O)cc(O)c1Cl | α-glucosidase (Saccharomyces cerevisiae) (Saccharomyces cerevisiae, UniProt P53341) | 780

###

target: α-glucosidase (Saccharomyces cerevisiae) (Saccharomyces cerevisiae, UniProt P53341); test: Kinetic test for α-glucosidase (Lineweaver–Burk); conditions: Lineweaver–Burk plots
measurement.label: Mode of inhibition (α-glucosidase)

smiles | measurement.label | endpoint.result
O=c1c(Cc2ccc(O)cc2)coc2cc(O)cc(O)c12 | Mode of inhibition (α-glucosidase) | Mixed
Cc1c(Cl)c(O)cc(O)c1Cl | Mode of inhibition (α-glucosidase) | Mixed
CCO[C@@H](c1ccc(O)c(OC)c1)[C@H](O)CO | Mode of inhibition (α-glucosidase) | Mixed

###

biological target: α-glucosidase (Saccharomyces cerevisiae) (Saccharomyces cerevisiae); experiment: Kinetic test for α-glucosidase (Lineweaver–Burk)
pKi: −log10 of the molar value.
Label scheme for pKi: lower than 5 is not satisfied, 5 and above is satisfied.

compound | category.label
O=C(/C=C/c1ccc(O)cc1)NCCc1ccc(O)cc1 [Compound 18, trans-N-p-coumaroyltyramine] | not satisfied
Cc1c(Cl)c(O)cc(O)c1Cl | not satisfied
O=c1c(Cc2ccc(O)cc2)coc2cc(O)cc(O)c12 | not satisfied
COc1cc(O)c2c(c1C)O[C@H](c1ccc(O)cc1)CC2 | not satisfied
CCO[C@@H](c1ccc(O)c(OC)c1)[C@H](O)CO | satisfied

###

# Ki per entry for α-amylase (porcine pancreas) (Sus scrofa)

molecule | Ki [mM]
Cc1c(O)cc2c(c1O)C(=O)C(Cc1ccc(O)cc1)CO2 (centres unmarked) [Compound 8] | 14.1
O=c1c(Cc2ccc(O)cc2)coc2cc(O)cc(O)c12 [Compound 9] | 8.59

###

target: α-amylase (porcine pancreas) (Sus scrofa); experiment: α-Amylase inhibition assay (starch-iodine)
Sequence (P00690 16-511): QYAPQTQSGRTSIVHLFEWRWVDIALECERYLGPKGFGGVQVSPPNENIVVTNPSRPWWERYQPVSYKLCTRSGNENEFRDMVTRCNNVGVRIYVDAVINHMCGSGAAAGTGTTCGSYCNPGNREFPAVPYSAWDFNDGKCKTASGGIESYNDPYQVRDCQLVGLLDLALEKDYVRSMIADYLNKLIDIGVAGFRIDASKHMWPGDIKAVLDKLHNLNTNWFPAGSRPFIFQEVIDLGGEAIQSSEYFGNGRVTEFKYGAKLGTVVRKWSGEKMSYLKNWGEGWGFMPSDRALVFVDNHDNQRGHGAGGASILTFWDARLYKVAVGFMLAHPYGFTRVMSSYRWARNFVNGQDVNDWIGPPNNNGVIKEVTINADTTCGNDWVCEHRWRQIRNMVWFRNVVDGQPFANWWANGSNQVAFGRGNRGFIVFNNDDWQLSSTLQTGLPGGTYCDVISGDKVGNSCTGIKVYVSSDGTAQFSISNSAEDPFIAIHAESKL
Entries and their IC50 values follow.
measurement.label: IC50 (mM)

molecule | measurement.label | endpoint.result
O=c1c(Cc2ccc(O)cc2)coc2cc(O)cc(O)c12 [Compound 9] | IC50 | 2.59
Cc1c(O)cc2c(c1O)C(=O)C(Cc1ccc(O)cc1)CO2 (centres unmarked) [Compound 8] | IC50 | 5.99
